ASSAYED_TARGET: T1, StrepII-tagged ROR1-extracellular domain (human) (human, UniProt Q01973 30-406)
T1 construct: extracellular domain; also called ROR1-strep; soluble ROR1-strep
T1 sequence (Q01973 other isoform, or with tags, fused parts or gaps): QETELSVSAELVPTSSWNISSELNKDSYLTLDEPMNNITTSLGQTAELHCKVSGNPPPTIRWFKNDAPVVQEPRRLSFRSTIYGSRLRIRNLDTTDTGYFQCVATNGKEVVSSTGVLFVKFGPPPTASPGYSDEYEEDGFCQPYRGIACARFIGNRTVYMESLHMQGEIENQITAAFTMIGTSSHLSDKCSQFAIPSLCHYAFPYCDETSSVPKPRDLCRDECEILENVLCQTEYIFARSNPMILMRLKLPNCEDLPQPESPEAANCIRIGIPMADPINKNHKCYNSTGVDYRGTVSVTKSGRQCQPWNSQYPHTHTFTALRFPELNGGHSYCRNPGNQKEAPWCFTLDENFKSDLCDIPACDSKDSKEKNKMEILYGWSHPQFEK
METHOD_SUMMARY: SPR (Biacore T200), IgG from HEK293T supernatant captured by anti-human Fc, ROR1-strep 2.5-20 nM as analyte, 1:1 model, 25 C
Please provide measured Kd for the entries that follow.
Please reply with the bare figure in nM and do not write the unit itself.

Req: Suppose we examine the binder huR12_16, humanized from R12 (antibody, human IgG1, V domains shown, Human IgG1 with lambda light chain) VH: QVQLVESGGELVTPGGSLTLSCKASGFDFSAYYMSWVRQAPGKGLEWIASIYPSSGKTYYAAAVQGRFTISADNAKNTVYLQMNSLTAADTATYFCARDSYADDGALFNIWGQGTLVTVSS VL: QLVLTQSPSVSAALGSSAKITCTLSSAHKTDTIDWYQQLAGQAPRYLMYVQSDGSYEKRSGVPDRFSGSSSGADRYLIISSVQADDEADYYCGADYIGGYVFGGGTQLTVG ; what Kd value has been reported?
Resp: 0.092

Req: Please report the recorded Kd for huR12_11, humanized from R12 (antibody, human IgG1, V domains shown, Human IgG1 with lambda light chain) VH: QVQLVESGGALVQPGGSLTLSCKASGFDFSAYYMSWVRQAPGKGLEWIATIYPSSGKTYYAASVQGRFTISADNAKNTVYLQMNSLTAADTATYFCARDSYADDGALFNIWGQGTLVTVSS VL: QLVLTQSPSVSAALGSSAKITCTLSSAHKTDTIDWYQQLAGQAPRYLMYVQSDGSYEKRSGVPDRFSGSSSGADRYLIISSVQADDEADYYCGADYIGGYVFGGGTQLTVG .
Resp: 0.084

Req: Please report the recorded Kd for huR12_4, humanized from R12 (antibody, human IgG1, V domains shown, Human IgG1 with lambda light chain) VH: QVQLVESGGELVQPGGSLTLSCKASGFDFSAYYMSWVRQAPGKGLEWIATIYPSSGKTYYAASVQGRFTISADNAKNTVYLQMNSLTAADTATYFCARDSYADDGALFNIWGKGTLVTVSS VL: QLVLTQSPSVSAALGSSAKITCTLSSAHKTDTIDWYQQLAGQAPRYLMYVQSDGSYEKRSGVPDRFSGSASGADRYLAISRVQADDEADYYCGADYIGGYVFGGGTQLTVLG .
Resp: 0.091

Req: Look up Kd for this binder: Chimeric mAb R12 (rabbit variable regions, human IgG1/lambda constant regions) (antibody, V domains shown, Full-length IgG1 with human gamma 1 and lambda constant regions; also called parental mAb R12) VH: QEQLVESGGRLVTPGGSLTLSCKASGFDFSAYYMSWVRQAPGKGLEWIATIYPSSGKTYYATWVNGRFTISSDNAQNTVDLQMNSLTAADRATYFCARDSYADDGALFNIWGPGTLVTISS VL: ELVLTQSPSVSAALGSPAKITCTLSSAHKTDTIDWYQQLQGEAPRYLMQVQSDGSYTKRPGVPDRFSGSSSGADRYLIIPSVQADDEADYYCGADYIGGYVFGGGTQLTVT
Resp: 1.03

Req: Entry huR12_7, humanized from R12 (antibody, human IgG1, V domains shown, Human IgG1 with lambda light chain) VH: QVQLVESGGELVQPGGSLTLSCKASGFDFSAYYMSWVRQAPGKGLEWIATIYPSSGKTYYAASVQGRFTISADNAKNTVSLQMNSLTAADTATYFCARDSYADDGALFNIWGKGTLVTVSS VL: QLVLTQSPSVSAALGSSAKITCTLSSAHKTDTIDWYQQLAGQAPRYLMYVQSDGSYEKRSGVPDRFSGSSSGADRYLIISSVQADDEADYYCGADYIGGYVFGGGTQLTVLG : reported Kd = ?
Resp: 0.11
